- Tested on: highly malignant +SA mouse mammary epithelial cell line
- Experimental details: Antiproliferative MTT assay on +SA mammary epithelial cells
- Format: cell-based
- Particulars: Mus musculus, Epithelial cell, 96 h; 4-day culture, MTT
Measured metric: IC50

Lab book: IC50 of C/C1=C/C(=O)C[C@](C)(O)/C=C/[C@H](C(C)C)CC/C(C)=C/CC1 [Compound 30] noted as 15 µM

Each recorded value in this set is attributed to patent US7977384B1.
